target: ROCK2 (Homo sapiens (Human), UniProt O75116); experiment: Rho Kinase Inhibition Assay (IMAP fluorescence polarization); conditions: isolated enzyme, 10 μM ATP, 60 minutes at room temperature
Sequence (O75116 11-552): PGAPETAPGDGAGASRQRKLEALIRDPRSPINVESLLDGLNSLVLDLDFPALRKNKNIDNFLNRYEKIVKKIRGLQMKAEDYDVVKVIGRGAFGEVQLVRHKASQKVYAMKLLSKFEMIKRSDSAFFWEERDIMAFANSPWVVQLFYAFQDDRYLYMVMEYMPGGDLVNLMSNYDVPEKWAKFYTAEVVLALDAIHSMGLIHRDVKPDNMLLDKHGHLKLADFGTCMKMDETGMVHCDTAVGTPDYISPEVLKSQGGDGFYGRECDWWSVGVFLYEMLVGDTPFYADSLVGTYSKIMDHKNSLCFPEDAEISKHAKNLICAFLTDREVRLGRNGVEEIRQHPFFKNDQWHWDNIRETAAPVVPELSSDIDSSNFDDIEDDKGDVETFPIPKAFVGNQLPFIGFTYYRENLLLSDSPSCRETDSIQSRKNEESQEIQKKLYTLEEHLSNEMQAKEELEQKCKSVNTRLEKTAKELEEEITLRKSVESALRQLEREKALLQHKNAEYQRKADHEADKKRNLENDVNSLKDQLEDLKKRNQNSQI
pIC50: −log10 of the molar value.
The label depends only on pIC50: Satisfied if it is at least 6, Not satisfied if it is smaller.

C#Cc1ccc(CN2CCCC(Nc3ccc4[nH]ncc4c3)C2)cc1O (stereo not drawn) [Compound 1.083] | Not satisfied
FC(F)(F)c1cccc(Oc2cccc(CN3CCCC(Nc4ccc5[nH]ncc5c4)C3)c2)c1 (stereo not drawn) [Compound 1.070] | Not satisfied
N#Cc1cccc(CN2CCCC(Nc3cccc4cnccc34)C2)c1 (stereo not drawn) [Compound 2.003] | Not satisfied
CS(=O)(=O)Nc1cccc(CN2CCC[C@@H](Nc3cccc4cnccc34)C2)c1 [Compound 2.033] | Not satisfied
c1cc(N2CCCC2)ccc1CN1CCCC(Nc2ccc3[nH]ncc3c2)C1 (stereo not drawn) [Compound 1.011] | Not satisfied
CS(=O)(=O)c1ccc(CN2CCC(Nc3cccc4cnccc34)C2)cc1 (stereo not drawn) [Compound 2.005] | Not satisfied
c1cc2cc(CN3CCCC(Nc4ccc5[nH]ncc5c4)C3)ccc2[nH]1 (stereo not drawn) [Compound 1.100] | Satisfied
C#Cc1cccc(CN2CCCC(Nc3ccc4[nH]ncc4c3)C2)c1 (stereo not drawn) [Compound 1.047] | Satisfied

Qu. In plain terms: is recorded pIC50 at least 6 for CC(=O)Nc1ccc(CN2CCC(Nc3ccc4[nH]ncc4c3)C2)cc1 (stereo not drawn) [Compound 1.006] ?
Ans. Not satisfied

Qu. In plain terms: is recorded pIC50 at least 6 for CCCCc1ccc(CN2CCCC(Nc3ccc4[nH]ncc4c3)C2)cc1 (stereo not drawn) [Compound 1.014] ?
Ans. Not satisfied

Qu. In plain terms: is recorded pIC50 at least 6 for CS(=O)(=O)Nc1cccc(CN2CC[C@H](Nc3cccc4cnccc34)C2)c1 [Compound 2.035] ?
Ans. Not satisfied

Qu. In plain terms: is recorded pIC50 at least 6 for Nc1cc(CN2CCCC(Nc3ccc4[nH]ncc4c3)C2)ccc1Cl (stereo not drawn) [Compound 1.089] ?
Ans. Satisfied

Qu. In plain terms: is recorded pIC50 at least 6 for Clc1ccc(CN2CCC[C@H](Nc3ccc4[nH]ncc4c3)C2)cc1 [Compound 1.081] ?
Ans. Satisfied

Qu. In plain terms: is recorded pIC50 at least 6 for NCc1ccc(CN2CCCC(Nc3ccc4[nH]ncc4c3)C2)cc1 (stereo not drawn) [Compound 1.035] ?
Ans. Satisfied

Qu. In plain terms: is recorded pIC50 at least 6 for NC(=O)COc1cccc(CN2CCCC(Nc3ccc4[nH]ncc4c3)C2)c1 (stereo not drawn) [Compound 1.098] ?
Ans. Satisfied

* * *

molecular target: ROCK2 (Homo sapiens (Human), UniProt O75116); assay: Rho Kinase Inhibition Assay (IMAP fluorescence polarization); settings: isolated enzyme, 10 μM ATP, 60 minutes at room temperature
The compounds listed here are annotated with their IC50.

Consider the following illustrative entries.
Cc1n[nH]c2ccc(NC3CCCN(Cc4ccccc4)C3)cc12 (stereo not drawn) [Compound 1.049] | 604 nM
Clc1ccc(CN2CC[C@@H](Nc3cccc4cnccc34)C2)cc1 [Compound 2.027] | 120 nM

Lab note: next compound to report on.
Qu. # return recorded IC50 for entry COc1ccc(CN2CCC[C@H](Nc3ccc4[nH]ncc4c3)C2)cc1 [Compound 1.079]
Ans. 102 nM

* * *

biological target: ROCK2 (Homo sapiens (Human)); test: Rho Kinase Inhibition Assay (IMAP fluorescence polarization); conditions: isolated enzyme, 10 μM ATP, 60 minutes at room temperature
pIC50: −log10 of the molar value.
The label depends only on pIC50: y if it is at least 6, n if it is smaller.

Answered examples (2):
c1ccc(CN2CCCC(Nc3ccc4[nH]ncc4c3)CC2)cc1 (centres unmarked) | n
CSc1ccc(CN2CCCC(Nc3cccc4cnccc34)C2)cc1 (centres unmarked) | y

Qu. In plain terms: is recorded pIC50 at least 6 for CC(=O)Nc1ccc(CN2CCC(Nc3cccc4cnccc34)C2)cc1 (centres unmarked) ?
Ans. n

Qu. In plain terms: is recorded pIC50 at least 6 for NC(=O)c1cccc(CN2CCCC(Nc3ccc4[nH]ncc4c3)C2)c1 (centres unmarked) ?
Ans. y

Qu. In plain terms: is recorded pIC50 at least 6 for OCCOc1cccc(CN2CCC(Nc3ccc4[nH]ncc4c3)CC2)c1 ?
Ans. n

Qu. In plain terms: is recorded pIC50 at least 6 for Cc1ccc(CN2CCCC(Nc3ccc4[nH]ncc4c3)C2)c(C)c1 (centres unmarked) ?
Ans. y

Qu. In plain terms: is recorded pIC50 at least 6 for c1cc(C2CC2)ccc1CN1CCCC(Nc2ccc3[nH]ncc3c2)C1 (centres unmarked) ?
Ans. y

Qu. In plain terms: is recorded pIC50 at least 6 for CC(C)(C)OC(=O)Cn1ccc2cc(CN3CCCC(Nc4ccc5[nH]ncc5c4)C3)ccc21 (centres unmarked) ?
Ans. n

* * *

Molecular target: UniProt:O75116
Assay: Rho Kinase Inhibition Assay (IMAP fluorescence polarization)
Settings: isolated enzyme, 10 μM ATP, 60 minutes at room temperature
Procedure: Following the preincubation, 10 μM ATP was added to initiate the reaction. After 60 minutes at room temperature, Molecular Devices IMAP™ binding solution was added to bind phosphorylated substrate. After 30 minutes of incubation in the presence of the IMAP™ beads the fluorescence polarization was read and the ratio was reported as mP. IC50 results were calculated using the Prism software from Graphpad. See Tian et al., Arch. Ophthalmol. […] Ophthalmol. Vis. […] Ophthalmol. […] Cytoskel. […] Ophthalmol. Vis. […]
Class assignment keyed on IC50, ranges low band = under 100 nM, middle band = from 100 nM up to 900 nM, high band = 900 nM and over

Answered examples (8):
OCCOc1cccc(CN2CC[C@@H](Nc3ccc4[nH]ncc4c3)C2)c1 | high band
N#Cc1cccc(CN2CCCC(Nc3ccc4[nH]ncc4c3)C2)c1 (stereo not drawn) | high band
CCOC(=O)COc1cccc(CN2CCCC(Nc3ccc4[nH]ncc4c3)C2)c1 (stereo not drawn) | low band
OCCOc1cccc(CN2CCC[C@H](Nc3cccc4cnccc34)C2)c1 | middle band
C#Cc1ccc(CN2CCCC(Nc3ccc4[nH]ncc4c3)C2)cc1 (stereo not drawn) | low band
Fc1ccc(CN2CCC[C@@H](Nc3ccc4[nH]ncc4c3)C2)cc1F | middle band
N#Cc1ccc(CN2CCCC(Nc3ccc4[nH]ncc4c3)C2)cc1 (stereo not drawn) | high band
CCS(=O)(=O)Nc1cccc(CN2CCCC(Nc3ccc4[nH]ncc4c3)C2)c1 (stereo not drawn) | middle band

Qu. Sort into band: CSc1ccc(CN2CCC[C@@H](Nc3ccc4[nH]ncc4c3)C2)cc1
Ans. low band

Qu. Sort into band: Clc1ccc(Oc2cccc(CN3CCCC(Nc4ccc5[nH]ncc5c4)C3)c2)cc1 (stereo not drawn)
Ans. high band

Qu. Sort into band: OCCCOc1cccc(CN2CCCC(Nc3ccc4[nH]ncc4c3)C2)c1 (stereo not drawn)
Ans. middle band

Qu. Sort into band: NC(=O)Cn1ccc2ccc(CN3CCCC(Nc4ccc5[nH]ncc5c4)C3)cc21 (stereo not drawn)
Ans. low band

Qu. Sort into band: c1cc(CN2CCCC(Nc3ccc4[nH]ncc4c3)C2)cc(C2CC2)c1 (stereo not drawn)
Ans. middle band

Qu. Sort into band: CS(=O)(=O)Nc1cccc(CN2CCC(Nc3ccc4[nH]ncc4c3)C2)c1 (stereo not drawn)
Ans. middle band

Qu. Sort into band: N#Cc1cccc(CN2CCC(Nc3cccc4cnccc34)C2)c1 (stereo not drawn)
Ans. high band

Qu. Sort into band: CCOc1cccc(CN2CCCC(Nc3ccc4[nH]ncc4c3)C2)c1 (stereo not drawn)
Ans. middle band

* * *

Biological target: UniProt O75116
Experiment: Rho Kinase Inhibition Assay (IMAP fluorescence polarization)
Details: isolated enzyme, 10 μM ATP, 60 minutes at room temperature
Procedure: Following the preincubation, 10 μM ATP was added to initiate the reaction. After 60 minutes at room temperature, Molecular Devices IMAP™ binding solution was added to bind phosphorylated substrate. After 30 minutes of incubation in the presence of the IMAP™ beads the fluorescence polarization was read and the ratio was reported as mP. IC50 results were calculated using the Prism software from Graphpad. See Tian et al., Arch. Ophthalmol. […] Ophthalmol. Vis. […] Ophthalmol. […] Cytoskel. […] Ophthalmol. Vis. […]
Class assignment keyed on IC50, ranges A: < 100 nM; B: ≥ 100 nM and < 700 nM; C: ≥ 700 nM

Qu. Sort into band: CS(=O)(=O)Nc1cc(CN2CCCC(Nc3ccc4[nH]ncc4c3)C2)ccc1Cl (stereo not drawn)
Ans. A

Qu. Sort into band: Cc1cccc(CN2CCCC(Nc3ccc4[nH]ncc4c3)C2)c1C (stereo not drawn)
Ans. B

* * *

biological target: ROCK2 (Homo sapiens (Human)); experiment: Rho Kinase Inhibition Assay (IMAP fluorescence polarization); settings: isolated enzyme, 10 μM ATP, 60 minutes at room temperature
pIC50: −log10 of the molar value.
The label depends only on pIC50: label 1 if it is at least 6, label 0 if it is smaller.

Answered examples (3):
CS(=O)(=O)c1ccc(CN2CCCC(Nc3cccc4cnccc34)C2)cc1 (stereo not shown) | label 0
NC(=O)COc1cccc(CN2CC[C@@H](Nc3cccc4cnccc34)C2)c1 | label 1
CC(=O)NCCOc1cccc(CN2CCCC(Nc3ccc4[nH]ncc4c3)C2)c1 (stereo not shown) | label 1

Qu. In plain terms: is recorded pIC50 at least 6 for Oc1cccc(CN2CCCC(Nc3ccc4[nH]ncc4c3)C2)c1 (stereo not shown) ?
Ans. label 1

Qu. In plain terms: is recorded pIC50 at least 6 for c1cc(N2CCOCC2)ccc1CN1CCCC(Nc2ccc3[nH]ncc3c2)C1 (stereo not shown) ?
Ans. label 0

Qu. In plain terms: is recorded pIC50 at least 6 for OCCn1ccc2ccc(CN3CCC[C@@H](Nc4ccc5[nH]ncc5c4)C3)cc21 ?
Ans. label 1
